# Test method notes: soluble fraction after stress (log2 fold change); higher = more stays soluble; pooled small domains, quantitative proteomics;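 note: 20 min heating vs room temperature control held 20 min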
# Study conditions: stress: 75 degC
Ranges used to classify soluble fraction (log2): one (below -1), two (-1 to below -0.4), three (-0.4 or more)

Data request: Determine which band this sequence sits in: HMTGKVSHGERKSVLVSLAGSMRARGMSIDAVRAGLYADNEKRFDPPLDERDIEDVLNSAKKWGDP
Data returned: three

Data request: Then what about the sequence HMQVEYTRGELIQDLEGGKIVYAGISPSRETPTGEVNFILDSGLTRTLYVTDVSEIEQLLISYDIDPEVKK ?
Data returned: three

Data request: Then what about the sequence HMNNILNYTIAELMEILKIDDLETENVINSSNNLINKSINENNFPLAEFYEDVKNNLIEFIETFDS ?
Data returned: two

Data request: Then what about the sequence HMPTTNIRAFRLREADPESVKEALSMVMPKTSIYVDARTKSVLVVGLLDELARAAEIVALIDQP ?
Data returned: one

Data request: Then what about the sequence HMVNHEERKRLIAEATWRTISHVGIEQASVRTIAKEAGLSLGALRYYFTTQEELLRFSMQLVQERV ?
Data returned: three

Data request: Then what about the sequence HMDEFQLTPREQEILGLLVKGYTYKRIASELNLSYATVNRHVSNVYVKLRVHSVNEAVALAVRKGL ?
Data returned: one

Data request: Then what about the sequence HMIYAEDFVGRQGTANTILRPSGRIEIEGEVYDAYTRGEYVEAGERVVVISQEGSTLKVRVV ?
Data returned: two

Data request: Then what about the sequence HMKNEFRVYPNPANKEIVTFNQTQDIEVYDTLGKLVLKAKNTNTLDTKSFHSGIYFIKTGSGLTRKLVV ?
Data returned: one

Data request: Then what about the sequence HMPQNLQDQLFELILSRYPRRADAVEDLANILHLGKDPVYRRLRGDTFLSPLEISTLALHFRISLDALIV ?
Data returned: one

Data request: Then what about the sequence HMETPQIVARGDLITMVFRSGSLVLTAKGKALENGAMGDTIRVVNSDSNKTLAARVSASREVTVSE ?
Data returned: two

Data request: Then what about the sequence HMPALPGNELLRNLMLEHGLKQVDLAEIGSQGVVSEILSGKRRINRRHADLLARRFSLPAELFSR ?
Data returned: three
